Entry source: PubChem BioAssay (NCI)

# Test system: HOP-92 NSCLC
# assay-explanation: NCI tumour cell line growth inhibition, 48 h; in the data active = GI50 below about 0.43 µM; inactive = the rest
Possible outcomes: active, inactive

- compound: "COc1ccc(-c2cc(/C=C3\\C(=O)Nc4cc(Cl)ccc43)[nH]n2)cc1"
  answer-label: "inactive"
- compound: "C[C@H](c1ccc(F)cc1CCCC(=O)O)N(c1cc(F)ccc1F)S(=O)(=O)c1ccc(Cl)cc1"
  answer-label: "inactive"
- compound: "C[C@@H](N)COc1ccc(-c2cnc3ccc(N[C@H](C)c4cccc(F)c4)nn23)cc1"
  answer-label: "active"
- compound: "COC(=O)c1ccc2nc(-c3cc4ccccc4n3C)n(CCCCOc3cc4c(cc3OC)C(=O)N3CCC[C@H]3C=N4)c2c1"
  answer-label: "active"
- compound: "NC(=O)c1cccc2c(N[C@H](CN3CCC3)c3ccc(Cl)c(C(F)(F)F)c3)ncnc12"
  answer-label: "active"
- compound: "O=C1C(=c2ccc(=C3C(=O)c4ccc([N+](=O)[O-])cc4[N+]3=O)cc2)N([O-])c2cc([N+](=O)[O-])ccc21"
  answer-label: "inactive"
- compound: "O=C(CN1CCN(Cc2ccccc2Cl)CC1)NC1CC(=O)c2c(Br)sc(Br)c21 (stereo not drawn)"
  answer-label: "inactive"
- compound: "CN1CC=C(c2cc(NC(=O)Nc3ccc(Oc4ccnc(NC(=O)C5CC5)c4)c(F)c3)cc(C(F)(F)F)c2)CC1"
  answer-label: "inactive"
